- Substrate: BHET
- CONDITION_LABEL: 120 h
EXPERIMENTAL_ENDPOINT: plate clearing

unnamed (protein) MKKSILEKIAVGTGALLFSVSAFSFTPSPTPDPDPDPDPTPCQGECDFTRGPNPTSSYLEASRGPYTVRNVSVSRSVSGFGGGTIHYPTNTTGTMGAIAIVPGFLAGESSISWWGPRLASHGFVVITIATNSTFDQPASRETQLGRALDYLVSQSNSSSSPISGKVDSARLGAMGWSMGGGGTLRLASGSRLVAAIPLAPWHSGSNNFNRIQTPTMIIACENDTTAAVRSHASPFYNSIPSSTDKAFLEINNGSHSCANGGGSNGGLLGKYGVSWMKRFMDQDTRYNQFLCGPNHAANSAISEYRETCNY : not clears the plate
unnamed (protein) MKTNRRRRLGRLALAAAALLLSVAAQAQNGSAPPGPDPDPDPNPPESDNPYPRGPDPTAATLEASSGPFAVSSFRPSSTPGFGGGTIYYPTNTNEGPFAAIAVAPGFVGTESTIDWLGPRLASHGFVVITIDTNSLFDFPDSRASQLMAALDIVIAESNGSSPISGLVDPDRTGLMGHSMGGGGSLIAARDNPTIDAVIPLAPWNSSTNFSAIDVPTLIVACENDTVAPVSQHASPMYESIPSSVDKAFLEINGGDHFCANSGNANQDILGKYIVSWMKRFLDQDTRYDPFLCGPNHEADPDISEYRDTCPY : not clears the plate
